Exercise: for every item that follows, state its recorded pKi.
Remember, pKi is on a log scale: it is -log10 of the molar concentration.

Form: Entry = COc1ccc(C2=NN(c3nc(-c4cccc([N+](=O)[O-])c4)cs3)C(c3ccc(C)s3)C2)cc1OC (stereo not shown) | System = AChE (from electric eel) (Electrophorus electricus) | pKi = ____
6.37

Request - read-out pKi | tested on AChE (from electric eel) (Electrophorus electricus) | compound COc1ccc(C2=NN(c3nc(-c4ccc(C)cc4)cs3)C(c3ccc(C)s3)C2)cc1OC (stereo not shown)
6.09

Can you look up pKi on AChE (from electric eel) (Electrophorus electricus) for COc1ccc(C2=NN(c3nc(-c4ccc(Cl)cc4Cl)cs3)C(c3ccc(C)s3)C2)cc1OC (stereo not shown) ?
5.96

Recall the recorded pKi for COc1ccc(C2=NN(c3nc(-c4ccc([N+](=O)[O-])cc4)cs3)C(c3ccc(C)s3)C2)cc1OC (stereo not shown) with AChE (from electric eel) (Electrophorus electricus) and state it.
Sequence (O42275 24-633): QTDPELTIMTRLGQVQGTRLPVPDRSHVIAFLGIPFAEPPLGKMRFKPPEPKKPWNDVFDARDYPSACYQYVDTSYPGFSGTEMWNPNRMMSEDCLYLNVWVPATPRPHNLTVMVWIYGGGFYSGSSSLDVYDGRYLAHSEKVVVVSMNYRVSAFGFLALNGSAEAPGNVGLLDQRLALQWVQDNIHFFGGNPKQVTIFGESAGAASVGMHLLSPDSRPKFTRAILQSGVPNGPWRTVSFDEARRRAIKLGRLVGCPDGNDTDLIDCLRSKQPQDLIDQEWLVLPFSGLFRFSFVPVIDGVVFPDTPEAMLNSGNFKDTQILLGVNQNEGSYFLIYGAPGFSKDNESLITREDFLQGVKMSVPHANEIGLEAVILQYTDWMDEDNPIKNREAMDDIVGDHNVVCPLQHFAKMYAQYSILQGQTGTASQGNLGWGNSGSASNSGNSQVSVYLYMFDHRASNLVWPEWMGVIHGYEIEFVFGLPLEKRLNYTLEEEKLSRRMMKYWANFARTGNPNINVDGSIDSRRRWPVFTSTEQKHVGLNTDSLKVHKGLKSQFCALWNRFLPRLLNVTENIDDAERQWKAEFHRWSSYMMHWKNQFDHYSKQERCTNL
7.24

Enter reported pKi observed with AChE (from electric eel) (Electrophorus electricus) for COc1ccc(-c2csc(N3N=C(c4ccc(OC)c(OC)c4)CC3c3ccc(C)s3)n2)cc1 (stereo not shown)
5.93

Form entry - test system: AChE (from electric eel) (Electrophorus electricus); read-out: pKi; compound: COc1ccc(C2=NN(c3nc(-c4ccc(C#N)cc4)cs3)C(c3ccc(C)s3)C2)cc1OC (stereo not shown)
7.35

Please provide the recorded pKi for COc1ccc(C2=NN(c3nc(-c4ccc(F)cc4)cs3)C(c3ccc(C)s3)C2)cc1OC (stereo not shown) , tested on AChE (from electric eel) (Electrophorus electricus).
6.84

Provide value of pKi for this record tested with AChE (from electric eel) (Electrophorus electricus): COc1ccc(C2=NN(c3nc(-c4ccc(F)cc4F)cs3)C(c3ccc(C)s3)C2)cc1OC (stereo not shown)
6.28

AChE (from electric eel) (Electrophorus electricus) / pKi / COc1ccc(C2=NN(c3nc(-c4ccccc4)cs3)C(c3ccc(C)s3)C2)cc1OC (stereo not shown) : value?
6.05

Request body: readout pKi, system AChE (from electric eel) (Electrophorus electricus), query COc1ccc(C2=NN(c3nc(-c4ccc(Cl)cc4)cs3)C(c3ccc(C)s3)C2)cc1OC (stereo not shown) . Return the value.
6.92
